# Protocol description: Determination of thiol pKa values (pH-titration monitored by absorbance at 238 nm)
# Format: physicochemical
# Condition details: potassium phosphate buffer, lower (first) thiol pKa; 0.10 M potassium phosphate buffer; mean ± SE from this work
# Description: The thiol pKa values of DTBA were determined by measuring its absorbance at 238 nm in solutions of different pH. The deprotonated thiolate absorbs much more strongly at 238 nm than does its protonated counterpart. [15a] […] Dithiol solution (70 μL) was then added to its complimentary 1-mL vial, and its absorbance at 238 nm was recorded. […] pKa values were determined by fitting the data in FIG. 3 to eq 1, which is derived from Beer's law and the definition of the acid dissociation constant. […]
Value kind: pKa

1) N[C@H](CS)CCS 8.2
